Sourced from paper PMC6736568

Tested on: HCT-8 host cells (Hs18S)
stated-conditions: human, 41 h, 10 μM
Structures can show the parent of a compound that is named as a salt.
Below, each entry is listed alongside its reported Hs18S ΔCT.
assay-readout: Hs18S ΔCT

[[record]]
molecule = "COC(=O)C[C@H]1C(C)(C)C(=O)[C@@H]2CC3C4=CC(=O)O[C@@H](c5ccoc5)[C@]4(C)CC[C@@H]3[C@@]1(C)C2=O (stereo partly drawn) [CARAPIN]"
assay_readout = "Hs18S ΔCT"
obs_value = -0.07

[[record]]
molecule = "Nc1ncnc2c1ncn2[C@@H]1O[C@H](CO)[C@@H](O)[C@H]1O [ADENOSINE]"
assay_readout = "Hs18S ΔCT"
obs_value = 0.02

[[record]]
molecule = "NC[C@H]1O[C@H](O[C@H]2[C@H](O)[C@@H](O[C@H]3O[C@H](CO)[C@@H](O)[C@H](N)[C@H]3O)[C@H](N)C[C@@H]2N)[C@H](N)C[C@@H]1O [TOBRAMYCIN]"
assay_readout = "Hs18S ΔCT"
obs_value = -0.49

[[record]]
molecule = "NC[C@H]1O[C@H](O[C@H]2[C@H](O)[C@@H](O[C@H]3O[C@H](CO)[C@@H](O)[C@H](N)[C@H]3O)[C@H](N)C[C@@H]2N)[C@H](O)[C@@H](O)[C@@H]1O [KANAMYCIN A SULFATE]"
assay_readout = "Hs18S ΔCT"
obs_value = -0.31

[[record]]
molecule = "COc1ccc(-c2oc3c(CC=C(C)C)c(O[C@@H]4O[C@H](CO)[C@@H](O)[C@H](O)[C@H]4O)cc(O)c3c(=O)c2O[C@@H]2O[C@@H](C)[C@H](O)[C@@H](O)[C@H]2O)cc1 [ICARIIN]"
assay_readout = "Hs18S ΔCT"
obs_value = -0.22

[[record]]
molecule = "NCCCC(=O)O [gamma-AMINOBUTYRIC ACID]"
assay_readout = "Hs18S ΔCT"
obs_value = 0.04

[[record]]
molecule = "C/C(=C\\C(=O)OCCCCCCCCC(=O)O)C[C@@H]1OC[C@H](C[C@@H]2O[C@H]2[C@@H](C)[C@H](C)O)[C@@H](O)[C@H]1O [MUPIROCIN]"
assay_readout = "Hs18S ΔCT"
obs_value = 0.09

[[record]]
molecule = "Cc1cc(O)c2c(c1)C(=O)c1cccc(O)c1C2=O [CHRYSOPHANOL]"
assay_readout = "Hs18S ΔCT"
obs_value = 0.17

[[record]]
molecule = "C=C[C@@H](C1=CC(=O)C(OC)=C(OC)C1=O)c1ccccc1 [3,4-DIMETHOXYDALBERGIONE]"
assay_readout = "Hs18S ΔCT"
obs_value = 0.06

[[record]]
molecule = "COc1cccc2c1C(=O)c1c(O)c3c(c(O)c1C2=O)C[C@@](O)(C(C)=O)C[C@@H]3O[C@H]1C[C@H](N)[C@H](O)[C@H](C)O1 [Daunorubicin, reference compound]"
assay_readout = "Hs18S ΔCT"
obs_value = 0.99

[[record]]
molecule = "Cc1c(C(=O)O)c(O)cc2c1C(=O)c1c(O)c([C@@H]3O[C@H](CO)[C@@H](O)[C@H](O)[C@H]3O)c(O)c(O)c1C2=O [CARMINIC ACID]"
assay_readout = "Hs18S ΔCT"
obs_value = -0.10

[[record]]
molecule = "CCCCCC(=O)Cc1cc(O)cc(O)c1C(=O)Oc1cc(CC(=O)CCCCC)c(C(=O)O)c(OC)c1 [ARTHONIOIC ACID]"
assay_readout = "Hs18S ΔCT"
obs_value = 0.02


* * *

Below, each entry is listed alongside its reported Hs18S ΔCT.
Tested on: HCT-8 host cells (Hs18S)
stated-conditions: human, 41 h, 10 μM
Structures can show the parent of a compound that is named as a salt.
assay-readout: Hs18S ΔCT

[[record]]
compound = "COc1c(O)cc(O)cc1O"
assay_readout = "Hs18S ΔCT"
obs_value = -0.32

[[record]]
compound = "CCCCC[C@H](CC(=O)O)C(=O)O"
assay_readout = "Hs18S ΔCT"
obs_value = 0.06

[[record]]
compound = "COc1c2ccoc2nc2c(OC)c(OCC(O)C(C)(C)O)ccc12 (stereo not shown)"
assay_readout = "Hs18S ΔCT"
obs_value = 0.11

[[record]]
compound = "C=C[C@@]1(C)CC(=O)[C@]2(O)[C@@]3(C)[C@@H](O)CCC(C)(C)[C@@H]3[C@H](O)[C@H](OC(C)=O)[C@@]2(C)O1"
assay_readout = "Hs18S ΔCT"
obs_value = 0.14

[[record]]
compound = "O=c1oc2ccccc2cc1O [3-HYDROXYCOUMARIN]"
assay_readout = "Hs18S ΔCT"
obs_value = -0.21

[[record]]
compound = "COc1cc(O)c2c(=O)c(O)c(-c3ccccc3)oc2c1"
assay_readout = "Hs18S ΔCT"
obs_value = 0.18

[[record]]
compound = "Cc1cc(O)c2c(O)c3c(O)cccc3cc2c1"
assay_readout = "Hs18S ΔCT"
obs_value = 0.48

[[record]]
compound = "O=c1c(O)cccc2cc(O)c(O)c(O)c12"
assay_readout = "Hs18S ΔCT"
obs_value = -0.01

[[record]]
compound = "CC(=O)N(O)CCCCCNC(=O)CCC(=O)N(O)CCCCCNC(=O)CCC(=O)N(O)CCCCCN [DEFEROXAMINE MESYLATE]"
assay_readout = "Hs18S ΔCT"
obs_value = 0.31

[[record]]
compound = "COc1ccc(-c2coc3cc(O)ccc3c2=O)c(O)c1O"
assay_readout = "Hs18S ΔCT"
obs_value = -0.02

[[record]]
compound = "COc1ccc(-c2cc(=O)c3c(OC)c(OC)c(OC)c(OC)c3o2)cc1OC"
assay_readout = "Hs18S ΔCT"
obs_value = 0.26

[[record]]
compound = "C[C@]12CC[C@@H]3c4ccc(O)cc4CC[C@H]3[C@@H]1CCC2=O"
assay_readout = "Hs18S ΔCT"
obs_value = -0.24

[[record]]
compound = "CCc1ccc2c(O)c3c(cc2c1C(=O)OC)C(=O)c1c(O)ccc(O)c1C3=O [BISANHYDRORUTILANTINONE]"
assay_readout = "Hs18S ΔCT"
obs_value = -0.16

[[record]]
compound = "C=CC(C1=CC(=O)C(OC)=CC1=O)c1ccc(O)cc1 (stereo not shown) [DALBERGIONE, 4-METHOXY-4'-HYDROXY-]"
assay_readout = "Hs18S ΔCT"
obs_value = 0.09

[[record]]
compound = "CO[C@H]1C[C@@H]2CC[C@@H](C)[C@@](O)(O2)C(=O)C(=O)N2CCCC[C@H]2C(=O)O[C@H]([C@H](C)C[C@@H]2CC[C@@H](O)[C@H](OC)C2)CC(=O)[C@H](C)/C=C(\\C)[C@@H](O)[C@@H](OC)C(=O)[C@H](C)C[C@H](C)/C=C/C=C/C=C/1C"
assay_readout = "Hs18S ΔCT"
obs_value = 0.94

[[record]]
compound = "CC(=O)c1ccc[nH]1"
assay_readout = "Hs18S ΔCT"
obs_value = -0.43

[[record]]
compound = "Oc1cc(O)c2c(c1)O[C@H](c1ccc(O)c(O)c1)[C@H](O)C2 [EPICATECHIN]"
assay_readout = "Hs18S ΔCT"
obs_value = -0.09

[[record]]
compound = "CC(C)=CCC[C@@H](C)[C@@H]1CC[C@]2(C)C3=C(CC[C@@]12C)[C@@]1(C)CC[C@H](O)C(C)(C)[C@@H]1CC3"
assay_readout = "Hs18S ΔCT"
obs_value = -0.29

[[record]]
compound = "Cc1cc(O)c2c(c1)C(=O)c1cc(O)cc(O)c1C2=O"
assay_readout = "Hs18S ΔCT"
obs_value = -0.04

[[record]]
compound = "COc1cc(O)c(C(=O)c2ccccc2)cc1O"
assay_readout = "Hs18S ΔCT"
obs_value = -0.27

[[record]]
compound = "O=c1[nH]cnc2nc[nH]c12"
assay_readout = "Hs18S ΔCT"
obs_value = 0.22

[[record]]
compound = "CC1(C)CC2C1CCC1(C)OC1CCC2(C)O (stereo not shown)"
assay_readout = "Hs18S ΔCT"
obs_value = -0.15


* * *

Below, each entry is listed alongside its reported Hs18S ΔCT.
Tested on: HCT-8 host cells (Hs18S)
stated-conditions: primary screening at 10 uM, treated vs control
assay-readout: Hs18S ΔCT

[[record]]
molecule = "COc1cc(C(=O)O)cc(OC)c1O"
obs_value = -0.26

[[record]]
molecule = "Nc1ncnc2nc[nH]c12"
obs_value = -0.08

[[record]]
molecule = "COc1cc2ccc(=O)oc2c(OC)c1OC"
obs_value = -0.48

[[record]]
molecule = "COc1cc([C@@H]2c3cc4c(cc3[C@H](O)[C@H]3COC(=O)[C@H]23)OCO4)cc(OC)c1OC"
obs_value = 5.42

[[record]]
molecule = "C/C1=C\\CC/C(C)=C/CC(C)(C)/C=C/C1"
obs_value = 0.00

[[record]]
molecule = "C=C[C@@](C)(O)CC[C@H]1C(=C)C[C@H](O)[C@H]2C(C)(C)CCC[C@]12C"
obs_value = 0.03

[[record]]
molecule = "COc1cc(-c2coc3cc(OC)c(OC)c(OC)c3c2=O)cc(OC)c1OC"
obs_value = -0.48

[[record]]
molecule = "CCNC(=O)CC[C@H](N)C(=O)[O-].[K+]"
obs_value = -0.45

[[record]]
molecule = "O=c1cc(-c2ccccc2)oc2c(O)c(O)ccc12 [7,8-DIHYDROXYFLAVONE]"
obs_value = 0.49

[[record]]
molecule = "Cc1cc(O)cc(=O)o1"
obs_value = 0.04

[[record]]
molecule = "C[C@H]1O[C@@H](O[C@H]2[C@@H](O)C[C@H](O[C@H]3[C@@H](O)C[C@H](O[C@H]4CC[C@@]5(C)[C@H](CC[C@@H]6[C@@H]5CC[C@]5(C)[C@@H](C7=CC(=O)OC7)[C@@H](O)C[C@]65O)C4)O[C@@H]3C)O[C@@H]2C)C[C@H](O)[C@@H]1O"
obs_value = 0.08

[[record]]
molecule = "CC1(C)C=Cc2c(c3c(c4c(=O)c(-c5ccc(O)cc5)coc24)OC(C)(C)CC3)O1"
obs_value = -0.24

[[record]]
molecule = "C[C@@H]1CC[C@@]2(OC1)O[C@H]1C[C@H]3[C@@H]4CC[C@H]5C[C@@H](O)CC[C@]5(C)[C@H]4CC[C@]3(C)[C@H]1[C@@H]2C"
obs_value = -0.40

[[record]]
molecule = "O.OC[C@H]1O[C@@H](O[C@H]2[C@H](O)[C@@H](O)[C@@H](O)O[C@@H]2CO)[C@H](O)[C@@H](O)[C@H]1O [LACTOSE MONOHYDRATE]"
obs_value = 0.02

[[record]]
molecule = "C[C@@H]1C[C@H](O)[C@@]2(O)[C@]13CC(=O)OC[C@@]2(C)[C@@](C)(O)C(=O)C3"
obs_value = 0.14

[[record]]
molecule = "O=c1c(-c2ccc(O)cc2)coc2c([C@@H]3O[C@H](CO)[C@@H](O)[C@H](O)[C@H]3O)c(O)ccc12"
obs_value = -0.46

[[record]]
molecule = "COc1cc(OC)c2c(=O)cc(-c3ccccc3)oc2c1"
obs_value = -0.12

